Cited source for all entries: the supplement of paper PMC8728848

As shown below, each of these binders has a reported glycan array binding signal (z-score) value.
Target: GlcNAc(b1-3)GalNAc
Assay: glycan array binding signal (z-score within array); higher = stronger binding
Conditions: glycan notation: IUPAC condensed, linker removed
The sample as a whole holds a higher share of the strongest signals than the screen did.
Lab note: record just the number, no unit beside it.

Suppose we examine the binder DC-ASGPR S+GEE (Homo sapiens) (protein) MTRTYENFQYLENKVKVQGFKNGPLPLQSLLQRLRSGPCHLLLSLGLGLLLLVIICVVGFQNSKFQRDLVTLRTDFSNFTSNTVAEIQALTSQGSSLEETIASLKAEVEGFKQERQAVHSEMLLRVQQLVQDLKKLTCQVATINNNGEEASTEGTCCPVNWVEHQDSCYWFSHSGMSWAEAEKYCQLKNAHLVVINSREEQNFVQKYLGSAYTWMGLSDPEGAWKWVDGTDYATGFQNWKPGQPDDWQGHGLGGGEDCAHFHPDGRWNDDVCQRPYHWVCEAGLGQTSQESH ; what glycan array binding signal (z-score) value has been reported? -0.312

Suppose we examine the binder ECL (Erythrina cristagalli), Q6YD91 (protein) VETISFSFSEFEPGNNDLTLQGAAIITQSGVLQLTKINQNGMPAWDSTGRTLYTKPVHIWDMTTGTVASFETRFSFSIEQPYTRPLPADGLVFFMGPTKSKPAQGYGYLGVFNNSKQDNSYQTLAVEFDTFSNPWDPPQVPHIGIDVNSIRSIKTQPFQLDNGQVANVVIKYDASSKILLAVLVYPSSGAIYTIAEIVDVKQVLPEWVDVGLSGATGAQRDAAETHDVYSWSFHASLPETND ; what glycan array binding signal (z-score) value has been reported? -0.196

Suppose we examine the binder PpFlo3 (Pichia pastoris) (protein) MGSSHHHHHHSSGLVPRGSHMQESGNGTTSDTAYACDIGATPFDGFNATIYQYQASDDNSIQDPVFMSTGYLQRNQLHSTTGVTNPGFNIFTAGVATTTLYGIPNVNYQNMLLELKGYFRADASGNYGLSLRNIDDSAILFFGRETAFECCNENLIPLDEAPTDYSLFTIKEGEASTNPDSYTYTQYLEAGRYYPVRTFFANIRTRAVFNFTMTLPDGSELTDFQNYIFQFGALNQ ; what glycan array binding signal (z-score) value has been reported? -0.266

Suppose we examine the binder CLEC7A (Homo sapiens), Q9BXN2 (protein) MEYHPDLENLDEDGYTQLHFDSQSNTRIAVVSEKGSCAASPPWRLIAVILGILCLVILVIAVVLGTMAIWRSNSGSNTLENGYFLSRNKENHSQPTQSSLEDSVTPTKAVKTTGVLSSPCPPNWIIYEKSCYLFSMSLNSWDGSKRQCWQLGSNLLKIDSSNELGFIVKQVSSQPDNSFWIGLSRPQTEVPWLWEDGSTFSSNLFQIRTTATQENPSPNCVWIHVSVIYDQLCSVPSYSICEKKFSM ; what glycan array binding signal (z-score) value has been reported? 3.29
